pIC50: −log10 of the molar value.
Kindly find below pIC50 information for Dual specificity protein kinase CLK1 (Homo sapiens, UniProt P49759) taken from the literature.

TEST SMILES: Cc1nn(C)c2c1/C=C/c1n[nH]c3ccc(cc13)-c1cnn(C)c1CN(C)CCO2
pIC50: 10.05
//
TEST SMILES: CCNc1cc(Nc2ccc(C(=O)N3CCC(N4CCOCC4)CC3)c3c2OCCO3)nc2[nH]cc(C(F)(F)F)c12
pIC50: > 7.00
//
TEST SMILES: CN(C)CCC1CCN(CCS(=O)(=O)c2ccc(-c3cnc(N)c(C(=O)Nc4ccccc4)n3)cc2)CC1
pIC50: 6.87
//
TEST SMILES: N#Cc1c[nH]c2nc(Nc3ccc(C(=O)N4CCC(N5CCOCC5)CC4)c4c3OCCO4)nc(NC3CCCCC3)c12
pIC50: 6.00 to 6.52
//
TEST SMILES: COc1cc(S(C)(=O)=O)ccc1Nc1cc(NCCS(C)(=O)=O)c2cc[nH]c2n1
pIC50: 6.00 to 6.52
//
TEST SMILES: N#Cc1c[nH]c2nc(Nc3ccc(C(=O)N4CCC(N5CCOCC5)CC4)c4c3OCC4)nc(NC3CCCC3)c12
pIC50: > 7.00
//
TEST SMILES: COc1cc(S(C)(=O)=O)ccc1Nc1nc(NCC(C)C)c2c(C(F)(F)F)c[nH]c2n1
pIC50: 6.00 to 6.52
//
TEST SMILES: CC[C@H](C)Nc1nc(Nc2ccc(S(=O)(=O)N3CCC(N4CCOCC4)CC3)cc2OC)nc2[nH]cc(C(F)(F)F)c12
pIC50: 6.00 to 6.52
//
TEST SMILES: N#Cc1c[nH]c2nc(Nc3ccc(C(=O)N4CCC(N5CCOCC5)CC4)c4c3OCCO4)cc(C3CC3)c12
pIC50: > 7.00
//
TEST SMILES: CNc1nc(Nc2ccc(S(C)(=O)=O)cc2OC)nc2[nH]cc(C(F)(F)F)c12
pIC50: 6.00 to 6.52
//
TEST SMILES: COc1cc(P(C)(C)=O)ccc1Nc1nc(NCC2CCCC2)c2c(C(F)(F)F)c[nH]c2n1
pIC50: 6.00 to 6.52
//
TEST SMILES: CNc1nc(Nc2ccc(S(C)(=O)=O)cc2OC)nc2[nH]cc(C#N)c12
pIC50: 6.00 to 6.52
